tested-on: insulin-degrading enzyme (recombinant human IDE) (human), P14735
measurement-conditions: modification not given
Square brackets hold non-standard residues; d marks the D form. Ends that are not written are not given here. diphenylalanine = not defined here

{"binder": "[diphenylalanine]-Arg-Tyr (reading uncertain) [diphenylalanine]", "Ki": "> 500 µM"}

meta.source: paper PMC2866327
